- Test system: B3 human anti-DNA antibodies
- TEST SUMMARY: Anti-peptide direct binding ELISA with B3
- CONDITIONS USED: direct binding ELISA; footnote: O.D. after two (2) hours
No end group written: not given here.
ASSAY ENDPOINT: B3 Binding (O.D.)

I = KEGYKVRLALNITLEFRTTSK [Peptide 5109]
II = KEGYKVELDLNITLEFRTTSK [Peptide 5106]
III = KEGYKVELDLNITLEFETTSK [Peptide 5105]
IV = VQSDVNITLEFR [Peptide 5111]
Let's sort these by B3 Binding, smallest first. Go ahead? Provide your answer as the labels ordered per the instruction.
IV, III, II, I

a = KEGYKVRLDLNITLAFRTTSK [Peptide 5110]
b = LDLNITEFRTTSK [Peptide 5103]
c = KEGYKVRLDLNITLEF [Peptide 5101]
d = KEGYKVQSDLNITLEFRTSSQ [Peptide 5300]
# desc sort on B3 Binding across 4 sequences Provide your answer as the labels ordered per the instruction.
a, c, d, b
(a: 1.83 O.D., c: 0.1 O.D., d: 0.03 O.D., b: 0.02 O.D.)

A = AEGYAVALDLNITLEFATTSA [Peptide 5104]
B = KAGYKVRLALNITLAFRTTSK [Peptide 5108]
Of the two listed items, A and B , which carries the larger B3 Binding figure? Mark your answer with the label of the selected entry.
B
(B: 1.93 O.D., A: 0.02 O.D.)
